Assay details: Inhibition of IL-1beta, IFN-gamma and TNF-alpha-induced apoptosis of rat INS-1E cells assessed as restoring cell viability after 48 hrs by luciferase based CellTiter-Glo assay
Assay type: functional
Record form. Attribute: EC50. Fill in for each entry.

I would be grateful if you could share the reported EC50 for COc1ccc(S(=O)(=O)N(C)C[C@@H]2Oc3c(NC(=O)Nc4cccc5c4CCCC5)cccc3C(=O)N([C@@H](C)CO)C[C@H]2C)cc1 .
> 20 µM

I would be grateful if you could share the reported EC50 for C[C@@H]1CN([C@@H](C)CO)C(=O)c2cccc(NC(=O)Nc3cccc(Cl)c3Cl)c2O[C@H]1CN(C)S(=O)(=O)c1ccc2c(c1)OCCO2 .
> 20 µM

I would be grateful if you could share the reported EC50 for COc1ccc(S(=O)(=O)N(C)C[C@@H]2Oc3c(NC(=O)NC4CCCc5ccccc54)cccc3C(=O)N([C@@H](C)CO)C[C@H]2C)cc1 (stereo not given in full) .
> 20 µM

I would be grateful if you could share the reported EC50 for COc1ccccc1S(=O)(=O)N(C)C[C@@H]1Oc2c(NC(=O)Nc3cccc4ccccc34)cccc2C(=O)N([C@@H](C)CO)C[C@H]1C .
> 20 µM

I would be grateful if you could share the reported EC50 for COc1ccc(S(=O)(=O)N(C)C[C@@H]2Oc3c(NC(=O)Nc4ccc5occc5c4)cccc3C(=O)N([C@@H](C)CO)C[C@H]2C)cc1 .
> 20 µM
